Test system: NCI-H226 lung
assayRemarks: NCI-60 one-dose screen, 48 h (100 = growth as untreated, 0 = no growth, -100 = all killed)
assayConditions: 10 µM
Compounds without any hit were thinned out: in the full panel of roughly 83,000, 20% have a hit. Calls of active or inactive are those of the source. How the source made its calls: active means growth percent below 10; inactive means the rest.
Reported growth values for the following molecules.

Which growth is listed for COCCNCC(O)Cn1c2ccc(Cl)cc2c2cc(Cl)ccc21 (stereo not given) ? 43.1% (inactive)

Which growth is listed for O=C(Nc1cccc(Cl)c1)Nc1cc2ncncc2cc1OCc1cccc(F)c1 ? 37.1% (inactive)

====

Reported growth values for the following molecules.
Test system: HCT-116 colon
assayRemarks: NCI-60 one-dose screen, 48 h (100 = growth as untreated, 0 = no growth, -100 = all killed)
assayConditions: 10 µM
Compounds without any hit were thinned out: in the full panel of roughly 83,000, 20% have a hit.
Please give a number only; it is taken to be in %.

# example entries with known answers
- structureSmilesString: "COc1ccc(-c2ccccc2)cc1C(=O)c1ccc(-c2ccccc2)cc1"
  measuredTarget: "HCT-116 colon"
  unitsText: "%"
  growth: 60.8
- structureSmilesString: "CS(=O)(=O)Nc1ccc(Nc2c3ccccc3nc3cc(Cl)ccc23)cc1"
  measuredTarget: "HCT-116 colon"
  unitsText: "%"
  growth: 16.5
- structureSmilesString: "O=C(NNc1nc(N2CCCC2)nc(N2CCCC2)n1)c1ccccc1"
  measuredTarget: "HCT-116 colon"
  unitsText: "%"
  growth: 109
- structureSmilesString: "CCN1CCN(c2ccc(Nc3ncnc4c3nnn4CCc3cc(OC)cc(OC)c3)cc2)CC1"
  measuredTarget: "HCT-116 colon"
  unitsText: "%"
  growth: 77.9
- structureSmilesString: "COc1cc(OC)cc(N2CCN(C(=O)Nc3nc4cc(F)ccc4nc3OC)CC2)c1"
  measuredTarget: "HCT-116 colon"
  unitsText: "%"
  growth: 0.21

Which growth is listed for Oc1ccc(/C=N\Nc2ccccn2)c(O)c1 ? 4.54

Where do these numbers come from? They come from PubChem BioAssay (NCI).
